molecular target: T1, BSA (bovine serum albumin) (bovine (송아지 혈청 알부민), UniProt P02769 25-607); test: phage ELISA, 1% BSA coated, anti-M13 peroxidase, OD 492 nm
T1 construct: Negative control antigen of the phage ELISA; also called 송아지 혈청 알부민
T1 sequence (P02769 25-607 limits assumed): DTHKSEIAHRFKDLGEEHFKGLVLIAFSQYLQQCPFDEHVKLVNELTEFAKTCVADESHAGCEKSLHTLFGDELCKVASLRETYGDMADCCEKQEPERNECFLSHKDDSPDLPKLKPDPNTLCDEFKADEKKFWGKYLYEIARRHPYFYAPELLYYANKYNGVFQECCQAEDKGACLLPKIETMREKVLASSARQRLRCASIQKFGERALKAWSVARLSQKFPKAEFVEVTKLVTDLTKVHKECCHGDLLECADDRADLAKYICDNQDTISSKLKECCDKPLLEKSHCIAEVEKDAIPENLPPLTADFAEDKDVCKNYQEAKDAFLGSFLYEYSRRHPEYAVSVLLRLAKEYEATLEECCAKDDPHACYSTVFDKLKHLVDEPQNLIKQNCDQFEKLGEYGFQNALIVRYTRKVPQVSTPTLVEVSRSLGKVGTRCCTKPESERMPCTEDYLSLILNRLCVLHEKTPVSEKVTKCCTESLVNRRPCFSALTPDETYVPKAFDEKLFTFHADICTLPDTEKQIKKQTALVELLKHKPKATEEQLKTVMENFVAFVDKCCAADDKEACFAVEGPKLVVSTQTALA
property-label: binding result

SC06-432 (scFv) scFv: QLQLQESGPGLVKPSQTLSLTCTVSGGSISSGGYYWSWIRQHPGKGLEWIGYIYYSGSTYYNPSLKSRVTISVDTSKNQFSLKLSSVTAADTAVYYCARERILDRMNDYWGQGTLVTVSSGTGGSGGTGSGTGGSTQSVVTQPPSVSGAPGQRVTISCTGSSSNIGAGYDVHWYQQLPGTAPKLLIYGNSNRPSGVPDRFSGSKSGTSASLAITGLQAEDEADYYCQSSDSSLNILFGGGTKLTVL: no binding
SC06-079 (scFv) scFv: EVQLVESGGGLVQPGGSLRLSCAASGFTFSSYAMSWVRQAPGKGLEWVSAISGTGGSAYYADSVKGRFTISRDNSKNTVYLQMNSLRAEDTAVYYCAKGHSSGTNWGQGTLVTVSSGTGGSGGTGSGTGGSTSYVLTQPPSASGTPGQRVTISCSGSSSNIGSNFVYWYQQLPGTAPKLLIYRNNQRPSGVPDRFSGSKSGTSASLAISGLRSEDEADYYCAAWDDSLSGVLFGGGTQLTVL: no binding

Values were extracted from patent KR20140095558A.
